Hello, the source for this data is patent US20150086555A1, in case you need it.

# measurement_target: recombinant soluble homotrimeric HA of A/chicken/Vietnam/NCVD-016/08 (H5N1) (Influenza A virus A/chicken/Vietnam/NCVD-016/2008(H5N1))
# test: HA microarray, BCC supernatant
# experimental_conditions: remark: other sources report otherwise
Kindly supply the reported Trimeric HA Binding: RLU values for the records listed here.
Answers are plain numbers, in RLU.

Answer for every listed entry: what is its Trimeric HA Binding: RLU? The entries follow.
1. TCN-527 (5086_C06) (antibody, V domains shown) VH: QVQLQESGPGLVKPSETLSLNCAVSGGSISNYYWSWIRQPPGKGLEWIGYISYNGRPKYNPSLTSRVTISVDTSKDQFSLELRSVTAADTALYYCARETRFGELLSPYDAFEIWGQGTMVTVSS VL: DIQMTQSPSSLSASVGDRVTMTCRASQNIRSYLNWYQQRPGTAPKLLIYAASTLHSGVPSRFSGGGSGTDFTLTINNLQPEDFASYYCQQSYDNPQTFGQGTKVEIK
2. TCN-538 (3206_O17) (antibody, V domains shown) VH: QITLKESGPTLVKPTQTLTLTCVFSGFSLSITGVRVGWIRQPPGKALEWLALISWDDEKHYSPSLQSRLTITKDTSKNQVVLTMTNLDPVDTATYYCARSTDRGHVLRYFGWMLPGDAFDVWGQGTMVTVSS VL: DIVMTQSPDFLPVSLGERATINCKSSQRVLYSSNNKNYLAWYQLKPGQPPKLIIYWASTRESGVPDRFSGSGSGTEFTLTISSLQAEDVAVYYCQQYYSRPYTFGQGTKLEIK
3. TCN-544 (5082_A19) (antibody, V domains shown) VH: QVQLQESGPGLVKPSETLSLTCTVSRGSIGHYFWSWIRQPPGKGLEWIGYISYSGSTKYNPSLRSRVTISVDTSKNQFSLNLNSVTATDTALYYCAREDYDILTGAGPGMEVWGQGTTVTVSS VL: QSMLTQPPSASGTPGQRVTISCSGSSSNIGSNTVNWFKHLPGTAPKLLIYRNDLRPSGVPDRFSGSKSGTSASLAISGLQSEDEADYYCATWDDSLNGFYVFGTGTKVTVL

A.
1. 27000
2. 37300
3. 272
